test system: RXRa DBDmut IVT, anti-RXR (DBD mutation: RXRa K156A/R161A, NR concentration 90 nM); assay: PBM binding z-score (relative to random genomic background probes); higher = stronger binding; sequences stand for … in GC…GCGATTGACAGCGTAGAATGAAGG
Entries annotated with measured PBM binding z-score
// return a plain number; no unit text

Example cases with answers are listed next.
1. CCGAGTAGGTTAGGAGGGGGCATTCAGTGCGAAT : 1.76
2. CTAACTAGGTCACCGGAAGGTCAAAGTCCGCATG : 2.16
3. CCTGCTCGGTCAATGGTCAGCTAAAGCAGCTCGC : 0.331
4. AGAATGAGGTTATACGTAGGTCAGGGAAGAAAGT : 1.74
5. CCTTACGGGTCAAGGTTATACCACGGGTGGTACG : 0.758
6. ATCGAAAGGTCGACGAGGTGAGTATGCACCGTTT : 1.3

Any idea what its PBM binding z-score is? The sequence is ATTTGTAGGTTAGGGTCATTCAGAAAGTAGGGAA
2.82

Dear colleague, I am looking for the recorded PBM binding z-score of the following sequence: TCGAGTAGGTTACGGGTGCATTCAGGGATGAAGA
0.951

Any idea what its PBM binding z-score is? The sequence is CTGTGTAGGTTAAGGGGGTCATTCAGTTTGAAAG
2.68

Look up PBM binding z-score: TCGAGTAGGTTATGGGGGCATTCAGGGATGAAGA
1.84

// query PBM binding z-score value for entry TCGAGTAGGTTACGGGGGCCTTCAGGGATGAAGA
0.49

Quick one: PBM binding z-score for AGTCAAAGTTCAGTAGGTAACGTAAGATTCAGCT ?
3.23

Reported PBM binding z-score, sequence GATACGGGGTCAGCTAGAGGCCAGAGTATGGAAA : ____
3.39

So what does the record say about PBM binding z-score for GGAACGAGGGCATTCGAGTTGATAGCATGGCGAT ?
3.13

Entry ATCGAAAGGTCGAGGAGGTGAGTATACACCGTTT : reported PBM binding z-score = ?
0.868

Look at this sequence and give its reported PBM binding z-score. GCTGCTAGGTCGACTGATGGTCAGCTAAAGCTCG
0.38

# query: PBM binding z-score of entry CGTCCAAGGTCAATGCAAGGTCAGTGAAAGCATT
3.92

GET /values?readout=PBM binding z-score&item= CGAACTAGGTCAAAGGACAGGGAAAGGCGACGTA
1.07

Quick one: PBM binding z-score for CCGAGTGGGTTACGAGGGGGCATTCAGTGCGAAT ?
1.09

What measured PBM binding z-score goes with CTTTGTAGGTTAAGGGGGTCATTCAGTTTGAAAG ?
2.79

Which PBM binding z-score is reported for this sequence? TCTCGGAGGACACGAAAGGGCAGAGCTCGACATC
0.584

Data request, read-out PBM binding z-score, for CGTCAAAGTTCAACTAAGGTAACGTATAGCACGC
4.32

Need PBM binding z-score, item CTATGTAGGTTAAGGGGGTCAGTCAGTTTGAAAG
1.75

Please look up its PBM binding z-score: CGAACTAGGTCACCTGGACAGTGAAGAGGTTGGA
1.49

Would you mind telling me what PBM binding z-score value was observed for ACTAGTTGGTCAGCTGAGGTCACACAAAATTCGG ?
1.52

So what's the measured PBM binding z-score for this one? ATATGTAGGGTAGGGTCATTCAGAAAGTAGGGAA
2.93

# credit: the supplement of paper PMC6555819
